# Target Desc: human AChE (Homo sapiens)
# Sequence (P22303 32-614): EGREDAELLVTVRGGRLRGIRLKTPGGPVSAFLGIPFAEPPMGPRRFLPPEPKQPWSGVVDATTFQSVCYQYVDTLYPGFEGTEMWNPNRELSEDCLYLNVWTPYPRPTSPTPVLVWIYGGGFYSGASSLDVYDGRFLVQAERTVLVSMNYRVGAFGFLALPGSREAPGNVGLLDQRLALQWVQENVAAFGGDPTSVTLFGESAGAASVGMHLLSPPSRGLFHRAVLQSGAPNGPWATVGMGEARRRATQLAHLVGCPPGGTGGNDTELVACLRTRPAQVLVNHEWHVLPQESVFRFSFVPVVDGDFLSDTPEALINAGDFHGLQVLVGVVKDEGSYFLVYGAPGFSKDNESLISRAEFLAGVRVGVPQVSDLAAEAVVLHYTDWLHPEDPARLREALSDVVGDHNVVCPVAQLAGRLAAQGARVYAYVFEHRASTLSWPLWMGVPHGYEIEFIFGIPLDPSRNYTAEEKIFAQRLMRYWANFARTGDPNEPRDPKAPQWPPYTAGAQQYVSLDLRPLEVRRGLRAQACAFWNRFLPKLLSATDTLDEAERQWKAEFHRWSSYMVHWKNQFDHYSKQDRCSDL
Readout Name: IC50

Known results for compounds:
O=C(c1nc2ccc(OCCCN3CCCC3)cc2s1)N1CCCC1 [Compound 3h]	7.21 µM
CC1CN(CCCOc2ccc3nc(C(=O)N4CCNC(C)C4)sc3c2)CCN1 (stereo not drawn) [Compound 4h]	> 10 µM
O=C(NCC1CCCCC1)c1nc2ccc(OCCCCCNCC3CCCCC3)cc2s1 [Compound 3q]	> 10 µM
O=C(NC1CCCC1)c1nc2ccc(OCCCNC3CCCC3)cc2s1 [Compound 3i]	7.31 µM
O=C(NCCc1ccccc1)c1nc2ccc(OCCCNCCc3ccccc3)cc2s1 [Compound 4d]	> 10 µM
O=C(NCC1CCCCC1)c1nc2ccc(OCCCNCC3CCCCC3)cc2s1 [Compound 3f]	> 10 µM
CC(=O)N1CCN(CCCOc2ccc3nc(C(=O)N4CCN(C(C)=O)C(C)C4)sc3c2)CC1C (stereo not drawn) [Compound 4m]	> 10 µM
O=C(c1nc2ccc(OCCCCCN3CCCCC3)cc2s1)N1CCCCC1 [Compound 3o]	> 10 µM

Now let's try a different one.
I'm curious: which IC50 was measured for CC1CCN(CCCOc2ccc3nc(C(=O)N4CCC(C)CC4)sc3c2)CC1 [Compound 4l] tested on human AChE (Homo sapiens)?
> 10 µM

====

# Target Desc: human H1R (Homo sapiens, UniProt P35367)
# Sequence (P35367 whole entry): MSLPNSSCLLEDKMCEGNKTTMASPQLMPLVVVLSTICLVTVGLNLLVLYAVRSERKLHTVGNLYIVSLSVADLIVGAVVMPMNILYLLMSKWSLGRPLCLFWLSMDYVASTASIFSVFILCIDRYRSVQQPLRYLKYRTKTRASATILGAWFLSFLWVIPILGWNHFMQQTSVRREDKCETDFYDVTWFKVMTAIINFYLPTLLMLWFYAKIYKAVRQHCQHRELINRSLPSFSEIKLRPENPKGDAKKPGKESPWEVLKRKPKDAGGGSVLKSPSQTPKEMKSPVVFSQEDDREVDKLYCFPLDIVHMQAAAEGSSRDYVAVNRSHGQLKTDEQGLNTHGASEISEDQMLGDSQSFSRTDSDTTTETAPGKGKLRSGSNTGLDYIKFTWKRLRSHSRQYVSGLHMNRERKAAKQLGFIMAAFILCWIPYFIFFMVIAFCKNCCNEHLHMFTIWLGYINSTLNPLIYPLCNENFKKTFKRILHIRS
# Method Notes: Human H1R radioligand displacement assay
# Assay type: binding
# Conditions: read-out: hH1R Inhibition at 10 µM [%] ±SD (n)
Note to self: values exactly at 20% are criterion met. So inhibition at 10 µM at or above 20% is criterion met, below is criterion not met.

O=C(c1nc2ccc(OCCN3CCCC3)cc2s1)N1CCCC1	criterion not met
CCOC(=O)c1nc2ccc(OCCN3CCOCC3)cc2s1	criterion not met
O=C(NCC1CCCCC1)c1nc2ccc(OCCCCNCC3CCCCC3)cc2s1	criterion not met
O=C(NC1CCCCCC1)c1nc2ccc(OCCCCCNC3CCCCCC3)cc2s1	criterion not met
O=C(NC1CC1)c1nc2ccc(OCCCCCNC3CC3)cc2s1	criterion met

Quick check: does O=C(NC1CC1)c1nc2ccc(OCCCCNC3CC3)cc2s1 have inhibition at 10 µM greater than or equal to 20%?
criterion met

In plain terms: is recorded inhibition at 10 µM at least 20% for O=C(c1nc2ccc(OCCCCN3CCCCC3)cc2s1)N1CCCCC1 ?
criterion met

Would you say O=C(c1nc2ccc(OCCCN3CCCC3)cc2s1)N1CCCC1 shows inhibition at 10 µM at minimum 20%?
criterion met

In plain terms: is recorded inhibition at 10 µM at least 20% for O=C(NC1CCCCCC1)c1nc2ccc(OCCCCNC3CCCCCC3)cc2s1 ?
criterion not met

====

# Target Desc: human H1R (Homo sapiens, UniProt P35367)
# Method Notes: Human H1R radioligand displacement assay
# Assay type: binding
# Conditions: read-out: hH1R Inhibition at 10 µM [%] ±SD (n)
The following compounds are shown together with reported inhibition at 10 µM values.
# value in %; strip the unit string

O=C(NC1CCCCCC1)c1nc2ccc(OCCCNC3CCCCCC3)cc2s1 [Compound 3e]	12.1
O=C(NC1CCCC1)c1nc2ccc(OCCCNC3CCCC3)cc2s1 [Compound 3i]	35.5
O=C(NCC1CCCCC1)c1nc2ccc(OCCCCCNCC3CCCCC3)cc2s1 [Compound 3q]	40.6
O=C(NC1CCCC1)c1nc2ccc(OCCCCCNC3CCCC3)cc2s1 [Compound 3t]	47.3
COC(=O)c1nc2ccc(OCCN3CCOCC3)cc2s1 [Compound 1d]	11.2
O=C(c1nc2ccc(OCCCCCN3CCCC3)cc2s1)N1CCCC1 [Compound 3s]	66.2

Consider the compound shown here: COC(=O)c1nc2ccc(OCCN3CCCCC3)cc2s1 [Compound 1e] What is its recorded inhibition at 10 µM?
16.3
